Parameter: pIC50. Scope: all listed entries.
# Experimental target: human H3 receptor (Homo sapiens, UniProt Q9Y5N1)
# Construct: purchased Perkin Elmer ES-392-M400UA; host or cells: CHO-K1 cells (recombinant expression), membrane preparation
# Sequence (Q9Y5N1 whole entry): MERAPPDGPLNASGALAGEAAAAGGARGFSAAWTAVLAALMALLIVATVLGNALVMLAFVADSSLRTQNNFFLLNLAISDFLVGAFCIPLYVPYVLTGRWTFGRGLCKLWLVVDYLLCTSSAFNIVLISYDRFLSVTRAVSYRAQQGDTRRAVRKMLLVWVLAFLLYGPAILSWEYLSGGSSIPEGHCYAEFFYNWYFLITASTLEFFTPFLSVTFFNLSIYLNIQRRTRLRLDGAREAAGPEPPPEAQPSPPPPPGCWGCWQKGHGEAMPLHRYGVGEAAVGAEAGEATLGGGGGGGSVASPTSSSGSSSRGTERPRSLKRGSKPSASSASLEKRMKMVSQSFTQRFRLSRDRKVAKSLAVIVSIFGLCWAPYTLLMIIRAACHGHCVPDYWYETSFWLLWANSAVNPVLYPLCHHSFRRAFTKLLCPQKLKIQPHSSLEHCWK
# Experiment: H3 Receptor Binding Test
# Recorded conditions: 50% inhibition of R(−)-α-methyl[3H]histamine (1 nM) binding; membrane preparation of human H3 receptor-expressing CHO-K1 cells
Lab note: report pIC50 as minus log10 of the concentration in molar units, number only.

C[C@@H]1CCCN1CCCOc1ccc2c(c1)CCC(=O)N2c1ccc(N2CCOCC2)cc1; 7.39

Task: Please look up its pIC50: C[C@@H]1CCCN1CCCOc1ccc2c(c1)CCC(=O)N2c1ccc(CN(C)C)cc1
Output: 9.17

Task: Item C[C@@H]1CCCN1CCCOc1ccc2c(c1)CCC(=O)N2c1cc(F)cc(F)c1 has what recorded pIC50?
Output: 8.68

Task: Recorded pIC50 for C[C@@H]1CCCN1CCCOc1ccc2c(c1)CCC(=O)N2c1cncc(F)c1 , please?
Output: 8.92

----------
Some compounds, each annotated with its measured pIC50.
# Experimental target: human H3 receptor (Homo sapiens, UniProt Q9Y5N1)
# Construct: purchased Perkin Elmer ES-392-M400UA; host or cells: CHO-K1 cells (recombinant expression), membrane preparation
# Experiment: H3 Receptor Binding Test
# Recorded conditions: 50% inhibition of R(−)-α-methyl[3H]histamine (1 nM) binding; membrane preparation of human H3 receptor-expressing CHO-K1 cells
# log scale: pIC50 equals minus log10 of the concentration in mol/L

Check out these entries, answers already filled in.
C[C@@H]1CCCN1CCCOc1ccc2c(c1)CCC(=O)N2c1ccc2ncccc2c1; 8.54
C[C@@H]1CCCN1CCCOc1ccc2c(c1)CCC(=O)N2c1ccc(C#N)cn1; 7.66
O=C1CCc2cc(OCCCN3CCCC3)ccc2N1c1cc(F)cc(F)c1; 7.66

Task: What does the record list as pIC50 for C[C@@H]1CCCN1CCCOc1ccc2c(c1)CCC(=O)N2c1ccc(F)c(F)c1 ?
Output: 9.00

Task: Find the recorded pIC50 belonging to C[C@@H]1CCCN1CCCOc1ccc2c(c1)CCC(=O)N2c1ccc(C#N)cc1 and report it.
Output: 8.36

Task: What measured pIC50 goes with N#Cc1cccc(N2C(=O)CCc3cc(OC4CCN(C5CCC5)CC4)ccc32)c1 ?
Output: 8.89

Task: May I ask what pIC50 has been recorded for COc1cccc(N2C(=O)CCc3cc(OCCCN4CCC[C@H]4C)ccc32)c1 ?
Output: 8.80

Task: Sample O=C1CCc2cc(OCCCN3CCCC3)ccc2N1c1ccc(F)cc1 — what was its pIC50?
Output: 7.89

Task: Please report the recorded pIC50 for C[C@@H]1CCCN1CCCOc1ccc2c(c1)CCC(=O)N2c1ccc2c(ccn2C(=O)OC(C)(C)C)c1 .
Output: 7.28

Task: Query (compound): Cc1ccc(N2C(=O)CCc3cc(OCCCN4CCC[C@H]4C)ccc32)cc1 ; field requested: pIC50
Output: 9.00

Task: Would you kindly share the measured pIC50 for C[C@@H]1CCCN1CCCOc1ccc2c(c1)CCC(=O)N2c1ccc(C(F)(F)F)cc1 ?
Output: 8.80

Task: Given the compound C[C@@H]1CCCN1CCCOc1ccc2c(c1)CCC(=O)N2c1cccnc1 , what is its reported pIC50?
Output: 8.66

Task: # query: pIC50 of entry C[C@@H]1CCCN1CCCOc1ccc2c(c1)CCC(=O)N2c1ccc2c(c1)OCO2
Output: 8.92

Task: Request the reported pIC50 associated with C[C@@H]1CCCN1CCCOc1ccc2c(c1)CCC(=O)N2c1cncc2cccnc12
Output: 7.70

Task: Given the compound C[C@@H]1CCCN1CCCOc1ccc2c(c1)CCC(=O)N2c1cnc2cccnc2c1 , what is its reported pIC50?
Output: 8.36

Task: Could you tell me which pIC50 is on file for C[C@@H]1CCCN1CCCOc1ccc2c(c1)CCC(=O)N2c1cccc(F)c1 ?
Output: 9.04

Task: For the compound shown here, C[C@@H]1CCCN1CCCOc1ccc2c(c1)CCC(=O)N2c1ccc(F)cc1 , give the reported pIC50.
Output: 8.96

Task: Looking for the measured pIC50 of C[C@@H]1CCCN1CCCOc1ccc2c(c1)CCC(=O)N2c1ncccc1C#N , can you help?
Output: 7.89

Task: Entry O=C1CCc2cc(OC3CCN(C4CCC4)CC3)ccc2N1c1ccccc1 has what pIC50?
Output: 9.22

----------
# Experimental target: human H3 receptor (Homo sapiens, UniProt Q9Y5N1)
# Construct: purchased Perkin Elmer ES-392-M400UA; host or cells: CHO-K1 cells (recombinant expression), membrane preparation
# Experiment: H3 Receptor Binding Test
# Recorded conditions: 50% inhibition of R(−)-α-methyl[3H]histamine (1 nM) binding; membrane preparation of human H3 receptor-expressing CHO-K1 cells
Measurement type: pIC50
Schema: pIC50 number; meaning minus log10 of the concentration expressed in molar units.

Task: Look up pIC50 for this compound: C[C@@H]1CCCN1CCCOc1ccc2c(c1)CCC(=O)N2c1ccc(OC(F)(F)F)cc1 [Compound No. 9]
Output: 8.46

Task: What value of pIC50 has been reported for the following compound? O=C1CCc2cc(OC3CCN(C4CC4)CC3)ccc2N1c1ccc(F)cc1 [Compound No. 77]
Output: 8.68

Task: Recorded pIC50 of O=C1CCc2cc(OC3CCN(C4CCC4)CC3)ccc2N1c1ccc(Cl)cc1 [Compound No. 70] , please.
Output: 9.12

----------
# Experimental target: human H3 receptor (Homo sapiens, UniProt Q9Y5N1)
# Construct: purchased Perkin Elmer ES-392-M400UA; host or cells: CHO-K1 cells (recombinant expression), membrane preparation
# Experiment: [35S]GTP-γ-S Binding Test
# Type: biochemical
# Recorded conditions: 50% inhibition of [35S]GTP-γ-S (0.2 nM) binding in presence of 10 nM R(−)-α-methylhistamine; human H3 receptor membrane preparation
Overview of recorded IC50 for various molecules
Express your answer in nM, writing the number without its unit.

O=C1CCc2cc(OC3CCN(C4CCC4)CC3)ccc2N1c1ccc(F)cc1 [Compound No. 60]; 0.23
O=C1CCc2cc(OC3CCN(C4CCC4)CC3)ccc2N1c1ccccc1 [Compound No. 72]; 0.16
C[C@@H]1CCCN1CCCOc1ccc2c(c1)CCC(=O)N2c1ccc(F)cc1 [Compound No. 6]; 0.28
C[C@@H]1CCCN1CCCOc1ccc2c(c1)CCC(=O)N2c1ccc(C(=O)N(C)C)cc1 [Compound No. 13]; 0.62
O=C1CCc2cc(OC3CCN(C4CCC4)CC3)ccc2N1c1cncc(F)c1 [Compound No. 71]; 0.26

Task: What value of IC50 has been reported for the following molecule? N#Cc1ccc(N2C(=O)CCc3cc(OC4CCN(C5CCC5)CC4)ccc32)cc1 [Compound No. 73]
Output: 0.23

Task: Entry O=C1CCc2cc(OC3CCN(C4CCC4)CC3)ccc2N1c1cccc(F)c1 [Compound No. 69] : reported IC50 = ?
Output: 0.2

Task: Endpoint output: IC50 of C[C@@H]1CCCN1CCCOc1ccc2c(c1)CCC(=O)N2c1ccc(CN(C)C)cc1 [Compound No. 12] . Value?
Output: 0.21

Task: Sample O=C1CCc2cc(OC3CCN(C4CCC4)CC3)ccc2N1c1cnc2ccccc2c1 [Compound No. 58] — what was its IC50?
Output: 0.4

----------
# Experimental target: human H3 receptor (Homo sapiens)
# Construct: purchased Perkin Elmer ES-392-M400UA; host or cells: CHO-K1 cells (recombinant expression), membrane preparation
# Experiment: H3 Receptor Binding Test
# Recorded conditions: 50% inhibition of R(−)-α-methyl[3H]histamine (1 nM) binding; membrane preparation of human H3 receptor-expressing CHO-K1 cells
Measurement type: pIC50
Value format note: pIC50 is -log10 of concentration (mol/L); just state the number.

O=C1CCc2cc(OC3CCN(CC4CC4)CC3)ccc2N1c1ccc(F)cc1; 8.01
C[C@@H]1CCCN1CCCOc1ccc2c(c1)CCC(=O)N2c1c[nH]c2ccccc12; 9.12
CC(=O)c1ccc(N2C(=O)CCc3cc(OCCCN4CCC[C@H]4C)ccc32)cc1; 8.44

Task: Bench note: what pIC50 did CC(C)(C)N1CCC(Oc2ccc3c(c2)CCC(=O)N3c2cnc3ccccc3c2)CC1 show?
Output: 8.07

Task: Tell me the measured pIC50 of C[C@@H]1CCCN1CCCOc1ccc2c(c1)CCC(=O)N2c1cnc2ccccc2c1 , please.
Output: 8.51

Task: Param item = CC(C)(C)N1CCC(Oc2ccc3c(c2)CCC(=O)N3c2cncc(F)c2)CC1 ; retrieve measured pIC50.
Output: 8.28

Task: Recorded pIC50 for Cc1ccc(Oc2ccc(N3C(=O)CCc4cc(OCCCN5CCC[C@H]5C)ccc43)cc2)nn1 , please?
Output: 9.00

Task: Item C[C@@H]1CCCN1CCCOc1ccc2c(c1)CCC(=O)N2c1cncc(C#N)c1 has what recorded pIC50?
Output: 8.24
